Ref: paper PMC4164784

Biological target: T1, eIF4E (residues 69–248) II-AA, purified (Drosophila melanogaster, UniProt P48598-2 69-248, Ile96 to Ala (II-AA) | Ile112 to Ala (II-AA))
T1 construct: eIF4E, Drosophila melanogaster, residues 69–248; also called eIF4E (II-AA); not shown: His6, N-terminal, cleaved
T1 sequence (looked up): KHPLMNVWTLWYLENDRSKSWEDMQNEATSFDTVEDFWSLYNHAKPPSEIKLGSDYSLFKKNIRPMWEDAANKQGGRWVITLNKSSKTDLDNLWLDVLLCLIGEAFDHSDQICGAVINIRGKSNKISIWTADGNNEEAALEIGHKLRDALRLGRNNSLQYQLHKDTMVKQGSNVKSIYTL
Test: ITC; VP-ITC, 20 °C; eIF4E (69–248, WT or mutant, 1–20 μM) in the cell, tenfold concentrated GB1-stabilized peptides titrated in; 20 mM Na-phosphate pH 7.0, 150 mM NaCl; one-site binding model
Details: both partners purified
EXPERIMENTAL_ENDPOINT: Kd (nM)
Just the number please, in nM, no unit attached.

Ask: Record request: Kd value, item CUP C+NC peptide fused C-terminally to GB1 (domain or fragment, Drosophila melanogaster, CUP, Drosophila melanogaster, canonical and non-canonical 4E-BMs; source: E. coli BL21 Star (DE3), purified (amylose, HRV3C cleavage, SEC); not shown: MBP, N-terminal, cleaved; GB1, C-terminal, kept) STGIHKPGSLRAPKAVRPTTAPVVSSKPVKSYTRSRLMDIRNGMFNALMHRSKESFVMPRIATCDDIELEGRLRRMNIWRTSDGTRFRTRSTTANLNMNNNNNNECMPAFFKNKNKPNLISDESIIQSQP
Result: 50

Ask: Record request: Kd value, item eIF4G peptide (residues 578–650) fused C-terminally to GB1 (domain or fragment, Drosophila melanogaster, UniProt O61380 578-650, looked up, eIF4G, Drosophila melanogaster, residues 578–650 (methods and legends); source: E. coli BL21 Star (DE3), purified (amylose, TEV cleavage, anion exchange, SEC); not shown: MBP, N-terminal, cleaved; GB1, C-terminal, kept) PETTLNDKQDSTDLKVKVSAKISSIINYNEGQWSPNNPSGKKQYDREQLLQLREVKASRIQPEVKNVSILPQP
Result: 40

Ask: Record request: Kd value, item TKLIYERAFMKNLRGSPLSQTPPSNVPSCLLRGT (domain or fragment) [Thor C+NC peptide fused C-terminally to GB1]
Result: 470

Ask: Record request: Kd value, item RYSKVDLLALRYEGKSRQRPQCSTRLELQTLGFWKI (domain or fragment) [4E-T C+NC peptide fused C-terminally to GB1]
Result: 8.8
